TEST_METHOD_NOTES: RP-TLC on cellulose layers, lipophilicity evaluation with water-organic modifier binary solvent systems
Format: physicochemical
MEASUREMENT_SETUP: cellulose, water-methanol, 10 vol% organic modifier
Threshold-based label: hRF under 80 gives 1.0, hRF not under 80 gives 0.0.

Study these solved cases before continuing.
* CCOC(=O)[C@H](CCc1ccccc1)N[C@@H](C)C(=O)N1Cc2ccccc2C[C@H]1C(=O)O | 1.0
* CCOC(=O)[C@H](CCc1ccccc1)N[C@H]1CCCN2CCC[C@@H](C(=O)O)N2C1=O | 1.0

Would you kindly look at the next entry?
Hi there! Is hRF for NCCCC[C@H](NC(CCc1ccccc1)C(=O)O)C(=O)N1CCC[C@H]1C(=O)O.O.O (some centres unmarked) below 80, do you know?
0.0

###

Attribute: hRF
TEST_METHOD_NOTES: RP-TLC on cellulose layers, lipophilicity evaluation with water-organic modifier binary solvent systems
Type: physicochemical
MEASUREMENT_SETUP: cellulose, water-methanol, 25 vol% organic modifier
Keep it simple and answer with nothing but the number.

Illustrative cases are given below, each with its answer.
- CCOC(=O)[C@H](CCc1ccccc1)N[C@@H](C)C(=O)N1Cc2ccccc2C[C@H]1C(=O)O: 68
- CCOC(=O)C(CCc1ccccc1)N[C@@H](C)C(=O)N1CCC[C@H]1C(=O)O (some centres unmarked): 86
- CCOC(=O)[C@H](CCc1ccccc1)N[C@H]1CCCN2CCC[C@@H](C(=O)O)N2C1=O: 80
- NCCCC[C@H](NC(CCc1ccccc1)C(=O)O)C(=O)N1CCC[C@H]1C(=O)O.O.O (some centres unmarked): 92

Could you now look at the following molecule, please?
Please fill in: hRF reported for `NS(=O)(=O)c1cc2c(cc1Cl)NCNS2(=O)=O` = 90

###

TEST_METHOD_NOTES: RP-TLC on cellulose layers, lipophilicity evaluation with water-organic modifier binary solvent systems
Assay type: physicochemical
MEASUREMENT_SETUP: cellulose, water-acetone, 15 vol% organic modifier
We label by threshold. Values of hRF strictly beneath 80 are true. Values of 80 and up are false.

- CCOC(=O)C(CCc1ccccc1)N[C@@H](C)C(=O)N1CCC[C@H]1C(=O)O (some centres unmarked) [Substance 1]: false
- NS(=O)(=O)c1cc2c(cc1Cl)NCNS2(=O)=O [HCTZ]: false
- CCOC(=O)[C@H](CCc1ccccc1)N[C@H]1CCCN2CCC[C@@H](C(=O)O)N2C1=O [Substance 4]: true
- NCCCC[C@H](NC(CCc1ccccc1)C(=O)O)C(=O)N1CCC[C@H]1C(=O)O.O.O (some centres unmarked) [Substance 3]: false

Consider now this further compound.
State whether 80 exceeds hRF recorded for CCOC(=O)[C@H](CCc1ccccc1)N[C@@H](C)C(=O)N1Cc2ccccc2C[C@H]1C(=O)O [Substance 2] .
true

###

TEST_METHOD_NOTES: RP-TLC on cellulose layers, lipophilicity evaluation with water-organic modifier binary solvent systems
Assay type: physicochemical
MEASUREMENT_SETUP: cellulose, water-ethanol, 30 vol% organic modifier
Measured hRF values are reported for all entries that follow.
Could you respond with only the numeric value?

- NS(=O)(=O)c1cc2c(cc1Cl)NCNS2(=O)=O: 95
- CCOC(=O)[C@H](CCc1ccccc1)N[C@H]1CCCN2CCC[C@@H](C(=O)O)N2C1=O: 88
- NCCCC[C@H](NC(CCc1ccccc1)C(=O)O)C(=O)N1CCC[C@H]1C(=O)O.O.O (some centres unmarked): 97
- CCOC(=O)[C@H](CCc1ccccc1)N[C@@H](C)C(=O)N1Cc2ccccc2C[C@H]1C(=O)O: 82

Could you now look at the following compound, please?
CCOC(=O)C(CCc1ccccc1)N[C@@H](C)C(=O)N1CCC[C@H]1C(=O)O (some centres unmarked) has a reported hRF of 93

###

TEST_METHOD_NOTES: RP-TLC on cellulose layers, lipophilicity evaluation with water-organic modifier binary solvent systems
Format: physicochemical
MEASUREMENT_SETUP: cellulose, water-methanol, 15 vol% organic modifier
OBSERVABLE: hRF
// no unit, no text: just the number

For orientation, consider the following solved cases.
- CCOC(=O)C(CCc1ccccc1)N[C@@H](C)C(=O)N1CCC[C@H]1C(=O)O (some centres unmarked): 80
- CCOC(=O)[C@H](CCc1ccccc1)N[C@H]1CCCN2CCC[C@@H](C(=O)O)N2C1=O: 68
- NS(=O)(=O)c1cc2c(cc1Cl)NCNS2(=O)=O: 83
- NCCCC[C@H](NC(CCc1ccccc1)C(=O)O)C(=O)N1CCC[C@H]1C(=O)O.O.O (some centres unmarked): 88

Let us move to another entry and its hRF.
Field hRF (entry `CCOC(=O)[C@H](CCc1ccccc1)N[C@@H](C)C(=O)N1Cc2ccccc2C[C@H]1C(=O)O` ) reads 58

###

TEST_METHOD_NOTES: RP-TLC on cellulose layers, lipophilicity evaluation with water-organic modifier binary solvent systems
Assay type: physicochemical
MEASUREMENT_SETUP: cellulose, water-methanol, 30 vol% organic modifier
OBSERVABLE: hRF
Provide a numeric answer; units are not to be included.

Value of measured hRF for the entry CCOC(=O)C(CCc1ccccc1)N[C@@H](C)C(=O)N1CCC[C@H]1C(=O)O (some centres unmarked) : 88

Reported hRF for `CCOC(=O)[C@H](CCc1ccccc1)N[C@@H](C)C(=O)N1Cc2ccccc2C[C@H]1C(=O)O` was 71

According to the records, this compound NCCCC[C@H](NC(CCc1ccccc1)C(=O)O)C(=O)N1CCC[C@H]1C(=O)O.O.O (some centres unmarked) displays hRF of 93

Value of hRF reported for the compound `CCOC(=O)[C@H](CCc1ccccc1)N[C@H]1CCCN2CCC[C@@H](C(=O)O)N2C1=O` is 85

hRF recorded for this compound, `NS(=O)(=O)c1cc2c(cc1Cl)NCNS2(=O)=O` , is 92

###

TEST_METHOD_NOTES: RP-TLC on cellulose layers, lipophilicity evaluation with water-organic modifier binary solvent systems
Assay type: physicochemical
MEASUREMENT_SETUP: cellulose, water-ethanol, 20 vol% organic modifier
Description: The three, water-organic modifier, binary solvent systems were used with different volume fractions. All components of mobile phases were of analytical grade of purity. The TLC experiments were performed on 10 cm × 10 cm cellulose (Art. 105552, Merck, Germany) layers. […] The RF -values were calculated according to the relationship: […] Here, RM-values were calculated for each solute in each mobile phase according to the Bate-Smith and Westall equation ([29]): […]
Entries and their measured hRF follow.
The reply should be a number, written without any unit.

Examples with answers:
- CCOC(=O)[C@H](CCc1ccccc1)N[C@H]1CCCN2CCC[C@@H](C(=O)O)N2C1=O: 79
- NS(=O)(=O)c1cc2c(cc1Cl)NCNS2(=O)=O: 90
- CCOC(=O)[C@H](CCc1ccccc1)N[C@@H](C)C(=O)N1Cc2ccccc2C[C@H]1C(=O)O: 74

The recorded hRF for entry CCOC(=O)C(CCc1ccccc1)N[C@@H](C)C(=O)N1CCC[C@H]1C(=O)O (some centres unmarked) equals 90

Reported hRF of NCCCC[C@H](NC(CCc1ccccc1)C(=O)O)C(=O)N1CCC[C@H]1C(=O)O.O.O (some centres unmarked) : 95

###

TEST_METHOD_NOTES: RP-TLC on cellulose layers, lipophilicity evaluation with water-organic modifier binary solvent systems
Format: physicochemical
MEASUREMENT_SETUP: cellulose, water-ethanol, organic modifier 10-30%
Description: The three, water-organic modifier, binary solvent systems were used with different volume fractions. All components of mobile phases were of analytical grade of purity. The TLC experiments were performed on 10 cm × 10 cm cellulose (Art. 105552, Merck, Germany) layers. […] The RF -values were calculated according to the relationship: […] Here, RM-values were calculated for each solute in each mobile phase according to the Bate-Smith and Westall equation ([29]): […]
OBSERVABLE: - m (slope, specific hydrophobic surface area)
Please give the numeric answer without any surrounding text.

Use the examples below as a reference point.
• CCOC(=O)[C@H](CCc1ccccc1)N[C@@H](C)C(=O)N1Cc2ccccc2C[C@H]1C(=O)O = 1.974
• CCOC(=O)C(CCc1ccccc1)N[C@@H](C)C(=O)N1CCC[C@H]1C(=O)O (some centres unmarked) = 2.589
• CCOC(=O)[C@H](CCc1ccccc1)N[C@H]1CCCN2CCC[C@@H](C(=O)O)N2C1=O = 2.109
• NCCCC[C@H](NC(CCc1ccccc1)C(=O)O)C(=O)N1CCC[C@H]1C(=O)O.O.O (some centres unmarked) = 2.533

The reported - m (slope, specific hydrophobic surface area) of the compound `NS(=O)(=O)c1cc2c(cc1Cl)NCNS2(=O)=O` was 2.697

###

Recorded hRF values for a group of compounds are listed next.
TEST_METHOD_NOTES: RP-TLC on cellulose layers, lipophilicity evaluation with water-organic modifier binary solvent systems
Assay type: physicochemical
MEASUREMENT_SETUP: cellulose, water-acetone, 25 vol% organic modifier
# output: bare number, no unit

Sample NCCCC[C@H](NC(CCc1ccccc1)C(=O)O)C(=O)N1CCC[C@H]1C(=O)O.O.O (some centres unmarked) ; hRF observed: 94

Recorded result, CCOC(=O)C(CCc1ccccc1)N[C@@H](C)C(=O)N1CCC[C@H]1C(=O)O (some centres unmarked) , hRF: 89

Notebook: `NS(=O)(=O)c1cc2c(cc1Cl)NCNS2(=O)=O` , hRF read as 92

// sample `CCOC(=O)[C@H](CCc1ccccc1)N[C@H]1CCCN2CCC[C@@H](C(=O)O)N2C1=O` , its hRF was 77

The measured hRF associated with `CCOC(=O)[C@H](CCc1ccccc1)N[C@@H](C)C(=O)N1Cc2ccccc2C[C@H]1C(=O)O` reads 70

Hey, just so you know, these numbers are from paper PMC3813140.
